Just for reference, patent US20140087995A1 is where these values come from.

System under test: T1, rat amylin receptor (rat calcitonin receptor + rat RAMP 3) (rat, UniProt P32214 25-516; Q9JJ73 23-147)
T1 construct: whole, on cells; membranes of transiently transfected BHK tk'ts 13 cells (Assay VI); also called rAmylin-R; rat amylin 3(a) receptor
T1 sequence (looked up) 1: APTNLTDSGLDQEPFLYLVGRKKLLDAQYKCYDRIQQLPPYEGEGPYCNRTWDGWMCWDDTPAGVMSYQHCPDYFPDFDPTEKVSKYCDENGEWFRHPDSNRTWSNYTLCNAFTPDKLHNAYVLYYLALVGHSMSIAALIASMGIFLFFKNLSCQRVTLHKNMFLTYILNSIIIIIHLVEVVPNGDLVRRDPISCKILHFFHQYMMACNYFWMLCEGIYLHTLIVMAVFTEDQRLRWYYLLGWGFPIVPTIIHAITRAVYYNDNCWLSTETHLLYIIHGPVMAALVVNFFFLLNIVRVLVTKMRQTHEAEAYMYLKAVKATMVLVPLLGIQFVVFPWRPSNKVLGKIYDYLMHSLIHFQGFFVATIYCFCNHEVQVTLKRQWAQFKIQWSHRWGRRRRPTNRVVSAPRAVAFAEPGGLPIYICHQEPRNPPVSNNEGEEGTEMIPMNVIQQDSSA
T1 sequence (looked up) 2: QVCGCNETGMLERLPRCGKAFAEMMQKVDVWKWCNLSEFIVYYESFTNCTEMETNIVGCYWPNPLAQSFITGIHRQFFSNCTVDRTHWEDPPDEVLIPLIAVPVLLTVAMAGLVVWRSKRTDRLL
Experimental details: SPA competition with 125I-rat amylin, membranes of BHK cells with rat calcitonin receptor + rat RAMP3 (Assay VI)
Numbered stars: 1 amine (or outer) side, 2 acyl side, 3 side chain; on linkers, the order of the positions; unused ones are H or OH. Bridge positions count the residues as written; N and C are the ends. * marks the point of attachment. C20 diacid = O=C(O)CCCCCCCCCCCCCCCCCCC(=O)*; γGlu = O=C(O)[C@H](CCC(=O)[*:2])N[*:1]
Reported values of pIC50 for individual entries
Scale for pIC50: -log10 of concentration given in mol/L; no unit attached.

Below: 2 binders and their reported pIC50.
| Binder | pIC50 |
| --- | --- |
| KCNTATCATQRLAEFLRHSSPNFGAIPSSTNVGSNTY (C20 diacid-gGlu-2xOEG on the alpha amino group of the N-terminal residue (Lys 1); disulfide bridge between the two Cys residues; C-terminal amide, analogue of human amylin; also called compound 19) | 8.99 |
| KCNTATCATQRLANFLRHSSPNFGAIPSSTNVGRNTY (C20 diacid-gGlu on the alpha amino group of the N-terminal residue (Lys 1); disulfide bridge between the two Cys residues; C-terminal amide, analogue of human amylin; also called compound 39) [N^α1-[(4S)-4-carboxy-4-(19-carboxynonadecanoylamino)butanoyl]-[Arg17,Pro21,Pro27,Arg34]-h-amylin] | 8.75 |

From here, focus on the item given below.
query: Need pIC50 of {C20 diacid-γGlu}-KCNTATCATQRLAEFLRHSSPNFGAPLSSTNVGSNTY-NH2 (disulfide 2-7 (inferred), analogue of human amylin; also called compound 7) [N^α1-[(4S)-4-carboxy-4-(19-carboxynonadecanoylamino)butanoyl]-[Glu14,Arg17,Pro21,Pro26]-h-amylin] , thanks.
result: 8.95
